So I've got a bunch of binders here, and I need their kon values.
# tested-system: T1, cynomolgus monkey CD73 protein (cynomolgus monkey, UniProt A0A2K5V5U7 27-547)
# T1 construct: construct not described
# T1 sequence: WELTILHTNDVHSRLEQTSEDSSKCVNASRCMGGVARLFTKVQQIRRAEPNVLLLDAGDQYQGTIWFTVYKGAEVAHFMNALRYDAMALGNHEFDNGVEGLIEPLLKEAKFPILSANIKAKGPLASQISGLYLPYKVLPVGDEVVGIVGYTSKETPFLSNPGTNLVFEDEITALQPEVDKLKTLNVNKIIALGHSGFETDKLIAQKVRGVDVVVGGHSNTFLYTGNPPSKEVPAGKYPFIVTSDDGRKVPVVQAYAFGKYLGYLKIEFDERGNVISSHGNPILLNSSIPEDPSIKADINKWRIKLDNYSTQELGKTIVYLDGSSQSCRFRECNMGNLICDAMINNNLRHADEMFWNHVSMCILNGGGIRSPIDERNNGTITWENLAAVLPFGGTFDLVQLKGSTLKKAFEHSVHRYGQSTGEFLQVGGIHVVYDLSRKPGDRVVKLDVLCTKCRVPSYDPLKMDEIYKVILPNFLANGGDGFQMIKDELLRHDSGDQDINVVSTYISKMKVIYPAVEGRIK
# experimental-protocol: BLI (Fortebio), cynomolgus CD73 on HIS1K biosensors, antibody as analyte
Express the result in M⁻¹ s⁻¹ but write the number alone.

Could you tell me which kon is on file for Hab1F2F9.15 (antibody, human IgG1, kappa, L234A L235A, V domains shown, Humanized 1F2F9; also called Huab1F2F9.15; HuablF2F9.15) VH: QVQLVQSGAEVKKPGASVKVSCKASGYTFTSYWMHWVRQAPGQRLEWMGNINPSNGGTKYSQKFQGRVTITVDTSASTAYMELSSLRSEDTAVYYCARRDYGSPSYWGQGTTVTVSS VL: DIQMTQSPSSLSASVGDRVTITCKASQDINSYLTWFQQKPGKAPKSLIYRTNILLDGVPSRFSGSGSGTDYTLTISSLQPEDFATYYCLQYHEFPVTFGGGTKLEIKR ?
2.09e+06

Could you tell me which kon is on file for Hab1F2F9.12 (antibody, human IgG1, kappa, L234A L235A, V domains shown, Humanized 1F2F9; also called Huab1F2F9.12) VH: QVQLVQSGAEVKKPGASVKVSCKASGYTFTSYWMHWVRQAPGQRLEWMGNINPSNGGTKYNEKFQGRVTITVDTSASTAYMELSSLRSEDTAVYYCARRDYGSPSYWGQGTTVTVSS VL: DIQMTQSPSSLSASVGDRVTITCKASQDINSYLTWFQQKPGKAPKSLIYRTNILLDGVPSRFSGSGSGTDYTLTISSLQPEDFATYYCLQYHEFPVTFGGGTKLEIKR ?
2.22e+06

Could you tell me which kon is on file for Hab7C3C2.5 (antibody, human IgG1, kappa, L234A L235A, V domains shown, Humanized 7C3C2; also called Hab7C3C.5) VH: QVQLVQSGAEVKKPGASVKVSCKASGYTFTSYDINWVRQATGQGLEWIGWIYPRDGFTKYNEKFKGRVTLTVNTSISTAYMELSSLRSEDTAVYYCARKEGYRGDWYFDVWGQGTTVTVSS VL: DIQMTQSPSSLSASVGDRVTITCRASGNVHNYLAWYQQKPGKAPKLLLYNAKTLASGVPSRFSGSGSGTDYTLTISSLQPEDFATYYCQHFWSTPWTFGGGTELEIKR ?
4.08e+06

Could you tell me which kon is on file for Hab7C3C2.9 (antibody, human IgG1, kappa, L234A L235A, V domains shown, Humanized 7C3C2; also called Huab7C3C.9) VH: QVQLVQSGAEVKKPGASVKVSCKASGYTFTSYDINWVRQATGQGLEWMGWIYPRDGFTKYAQKFQGRVTITVNTSISTAYMELSSLRSEDTAVYYCARKEGYRGDWYFDVWGQGTTVTVSS VL: DIQMTQSPSSLSASVGDRVTITCRASGNVHNYLAWYQQKPGKAPKLLLYNAKTLASGVPSRFSGSGSGTDYTLTISSLQPEDFATYYCQHFWSTPWTFGGGTELEIKR ?
4.56e+06
